Biological target: mouse melanocortin-3 receptor (mouse, UniProt P33033 1-323)
Sequence (P33033 whole entry): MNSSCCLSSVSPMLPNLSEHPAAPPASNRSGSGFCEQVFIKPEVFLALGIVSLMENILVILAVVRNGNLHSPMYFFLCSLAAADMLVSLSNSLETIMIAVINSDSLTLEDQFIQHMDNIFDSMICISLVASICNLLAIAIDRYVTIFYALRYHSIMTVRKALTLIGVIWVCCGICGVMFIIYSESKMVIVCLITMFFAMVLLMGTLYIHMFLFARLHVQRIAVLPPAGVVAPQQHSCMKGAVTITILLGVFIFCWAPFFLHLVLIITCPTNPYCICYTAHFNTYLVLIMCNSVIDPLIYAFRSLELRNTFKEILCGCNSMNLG
Test: cell-based or functional assay
Bridges are numbered along the chain shown (N, C = ends). Where no end group is shown, it is not given here. [ ]: non-standard residue; d: D form. Nle = CCCC[C@H](N)C(=O)O; Dap = NC[C@H](N)C(=O)O
OBSERVABLE: EC50 (agonist)

Kindly note the recorded EC50 (agonist) for Ac-SYS[Nle]EH[dR]FFGKPV-NH2 [SEQ ID NO:16 (Ac-Ser-Tyr-Ser-Nle-Glu-His-DArg-Phe-Phe-Gly-Lys-Pro-Val)] , which is > 100 µM

The measured EC50 (agonist) associated with YDAAANAF[Dap]Y-NH2 (lactam 2-9; N-terminus assumed; SMILES C[C@@H]1NC(=O)[C@H](C)NC(=O)[C@@H](NC(=O)[C@@H](N)Cc2ccc(O)cc2)CC(=O)NC[C@@H](C(=O)N[C@@H](Cc2ccc(O)cc2)C(N)=O)NC(=O)[C@H](Cc2ccccc2)NC(=O)[C@H](C)NC(=O)[C@H](CC(N)=O)NC(=O)[C@H](C)NC1=O) [SEQ ID NO:2 (Tyr-c[Asp-Ala-Ala-Ala-Asn-Ala-Phe-Dpr]-Tyr)] reads > 100 µM
